The reported numbers originate from PubChem BioAssay (NCI).

# assay_overview: NCI Yeast Anticancer Drug Screen. Data for the rad50 strain (AID 155);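 note: 0% = growth of vehicle-only cultures of the same strain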
# test_context: S. cerevisiae rad50 strain growth inhibition; at 50.0 µM (retest, dose inferred, filed as 5.0)
# Protocol: Growth inhibition of yeast strains with defined genetic alterations is measured as a screen for potential anti-cancer activity. Selected strains with alterations in DNA damage repair or cell cycle control were exposed to compounds and growth inhibition was measured relative to vehicle treated controls. The strain used in this assay is rad50
This is part of a sample that, as a whole, favours compounds with a hit. Of some 79,000 tested, about 15% had one in any assay. Calls of active or inactive are those of the source. Cut-off read from the data, not from the text of the source: active = growth inhibition above about 70%; inactive = the rest.
Pick one: yes for active, no for inactive

These recorded examples may help you get a feel for the data.
CC(=N/NC(=S)NCC(C)C)/C(C)=N\Nc1ccc(Cl)cc1 :: yes
Cc1cc(O)ccc1N=Nc1ccccc1 :: yes
O=C(c1ccccc1)C1C(c2ccccc2)OP(c2ccccc2)(c2ccccc2)(c2ccccc2)C1c1ccccc1 (stereo unspecified) :: yes
COc1cc(Cc2n[nH]c(=S)n2-c2ccccc2)c(S(N)(=O)=O)cc1OC :: no
CCCCCCCCCc1cccc(N2C(N)=NC(N)=NC2(C)C)c1 :: yes

From here, focus on the item given below.
Record lookup: outcome of this test for CCN(CC)CCOc1c(I)cc(I)cc1I ?
yes

* * *

# assay_overview: NCI Yeast Anticancer Drug Screen. Data for the rad50 strain (AID 155);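 note: 0% = growth of vehicle-only cultures of the same strain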
# test_context: S. cerevisiae rad50 strain growth inhibition; at 50.0 µM (retest, dose inferred, filed as 5.0); hits give high values
# Protocol: Growth inhibition of yeast strains with defined genetic alterations is measured as a screen for potential anti-cancer activity. Selected strains with alterations in DNA damage repair or cell cycle control were exposed to compounds and growth inhibition was measured relative to vehicle treated controls. The strain used in this assay is rad50
This is part of a sample that, as a whole, favours compounds with a hit. Of some 79,000 tested, about 15% had one in any assay.
Reported growth inhibition values are given for each entry in this list.
Give just the numeric value; % need not be written.

Example compounds with recorded growth inhibition:
Cc1cc2ccccc2c[n+]1Cc1ccc2ccccc2n1 :: -1
C=CCOC(=O)CCC(=O)N(CC)CC :: -10
Cc1ccc(N2C(=O)CCSC2=S)cc1C :: 87
CC(=O)Oc1ccc2c(c1)CCC1C2CCC2(C)C1CCC21CO1 (stereo not given) :: 60

Suppose we examine the compound C=Cc1cc(=O)oc2cc(OC)ccc12 ; what growth inhibition value has been reported?
98

// returns reported growth inhibition for input CCC(C)OC(=O)Nc1cccc(Cl)c1 (stereo not given)
61

Look up growth inhibition for this compound: CC(=O)OC1CCC2(C)C(=CCC3C2CCC2(C)C(C(C)N)CCC32)C1 (stereo not given)
98

GET /values?readout=growth inhibition&item= Cc1cc(C(O)(C(F)(F)F)C(F)(F)F)c(I)c(C(O)(C(F)(F)F)C(F)(F)F)c1
100

What value of growth inhibition has been recorded for this entry: Cc1ccccc1C(=O)C(C)c1ccccc1 (stereo not given)
-6

Sample C=C1C(=O)O[C@H]2C3C(=C(C)CC[C@@H]12)C(=O)[C@@H]1OC31C (stereo not given in full) — what was its growth inhibition?
49

* * *

# assay_overview: NCI Yeast Anticancer Drug Screen. Data for the rad50 strain (AID 155);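 note: 0% = growth of vehicle-only cultures of the same strain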
# test_context: S. cerevisiae rad50 strain growth inhibition; at 5.0 µM (retest, dose inferred, filed as 0.5); hits give high values
The panel holds about 79,000 compounds, 15% with a hit somewhere; the sample as a whole holds those more often.
growth inhibition for assorted compounds
Quick note: give the figure in %, leave out the unit.

# count of solved cases: 2
C/C(CC(O)(C(F)(F)F)C(F)(F)F)=N/Nc1ccc([N+](=O)[O-])cc1[N+](=O)[O-] :: 16
CSC(=S)N/N=C(/C)CC(C)C :: 25

I am curious: what growth inhibition value has been reported for CCCSc1ncnc2nc(C)[nH]c12 ?
-1

Entry CC(C)C1COC(c2ccc3ccccc3c2-c2c(O[Si](C)(C)C(C)(C)C)ccc3ccccc23)=N1 (centres undefined) has what growth inhibition?
20

Given the entry CC1CN(CCCN2c3ccccc3Sc3ccc(Cl)cc32)C(C)(C)C1 (centres undefined) , report its measured growth inhibition.
1

Sample CC1CC(=O)OC(C(=O)c2ccccc2)N1c1ccc(C(F)(F)F)cc1N (centres undefined) — what was its growth inhibition?
4

Record request: growth inhibition value, item O=CC(I)=C(c1ccccc1)c1ccccc1
21

Consider the compound shown here: C/C(=N/NC(N)=O)C1CC(CCC2([N+](=O)[O-])CCC(C)(O)C(/C(C)=N\NC(N)=O)C2)([N+](=O)[O-])CCC1(C)O (centres undefined) What is its recorded growth inhibition?
5

I am curious: what growth inhibition value has been reported for CCCCCCCCCc1cccc(N2C(N)=NC(N)=NC2(C)C)c1 ?
99

* * *

# assay_overview: NCI Yeast Anticancer Drug Screen. Data for the mlh1 rad18 strain (AID 175)
# test_context: S. cerevisiae mlh1 rad18 strain growth inhibition; at 5.0 µM (retest, dose inferred, filed as 0.5)
This is part of a sample that, as a whole, favours compounds with a hit. Of some 79,000 tested, about 15% had one in any assay. The source made the active and inactive calls. No stated cut-off is given here; in the data, active means growth inhibition above about 70%; inactive means the rest.
Hi there, use one of these labels in your reply, thanks! yes = active, no = inactive

Cc1ccc(S(=O)(=O)NNC2Oc3cc4c(cc3C(c3ccccc3O)C2C)OCO4)cc1 (stereo not given) :: no
O=C(O/N=C(/Cc1ccccc1)c1ccccc1)c1ccccc1 :: no
CCCCCCCCCCCC[N+](C)(C)C (tested in a mixture with another compound) :: no
S=P([S][Sn]([S]P(=S)(c1ccccc1)c1ccccc1)([c]1ccccc1)[c]1ccccc1)(c1ccccc1)c1ccccc1 :: no
CCC1=C(c2ccc(OC(C)=O)cc2)Cc2cc(OC(C)=O)ccc21 :: no

Assay result, entry CC(=O)N1c2ccccc2Sc2ccc(C(=O)CCl)cc21 — outcome?
no

Hi team, can someone confirm the assay call for CCC(Cl)COP(=O)(OC(c1ccc(Cl)c(Cl)c1)P(=O)(OCC(Cl)CC)OCC(Cl)CC)C(CC)CCl (stereo not given) ?
no

Please indicate how the test categorized Cc1nc(C(N)=S)sc1/C(CC(=O)C(=O)Nc1cccc2ccc(O)cc12)=N\NC(=O)c1ccncc1 .
no

Given COc1cc(O)c2c(c1)C(=O)C1=C(C2=O)[C@@H](C)OC(C)[C@H]1O (stereo not given in full) , state the outcome it received in this test.
no

* * *

# assay_overview: NCI Yeast Anticancer Drug Screen. Data for the sgs1 mgt1 strain (AID 161);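 note: 0% = growth of cultures given vehicle only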
# test_context: S. cerevisiae sgs1 mgt1 strain, at 50.0 µM, hits give high values
The panel holds about 79,000 compounds, 15% with a hit somewhere; the sample as a whole holds those more often.
Give Condition met when the value for growth inhibition is at least 70%. Give Condition not met when it is less.

Reference set (3 entries):
CC(C)N(CCOc1ccc(/C=C/c2ccccc2)cc1)C(C)C :: Condition not met
Cc1ccc(C)c2[nH]c(-c3ccccc3)cc12 :: Condition met
CC(C)(Br)C(Br)C(=O)C(Br)C(C)(C)Br (centres undefined) :: Condition not met

Here's the next entry for you.
Identify whether the reported growth inhibition of the following compound is 70% or greater: O=C(NC(OCc1ccccc1)(C(F)(F)F)C(F)(F)F)OCc1ccccc1
Condition met

* * *

# assay_overview: NCI Yeast Anticancer Drug Screen. Data for the rad50 strain (AID 155);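 note: 0% = growth of vehicle-only cultures of the same strain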
# test_context: S. cerevisiae rad50 strain growth inhibition; at 50.0 µM (retest, dose inferred, filed as 5.0); hits give high values
The panel holds about 79,000 compounds, 15% with a hit somewhere; the sample as a whole holds those more often.
measurement_type: growth inhibition (%)
Unit % implied. Number only.

FC(F)(F)c1[nH]nc(-c2cccs2)c1N=NN1CCOCC1 :: 98
Nc1ccc(CSc2ccc(Cl)cc2)cc1Cl :: 99
Cc1cc(O)c(/C=N/C(=S)Nc2ccc(S(N)(=O)=O)cc2)c(=O)o1 :: 42
COc1ccc2c(c1OC)OCC2C (stereo unspecified) :: 68
O=C(O)c1ccc(N=CC2CO2)cc1 (stereo unspecified) :: 11

What value of growth inhibition has been recorded for this entry: CCOCCNc1ncnc2c1cnn2C
-5

* * *

# assay_overview: NCI Yeast Anticancer Drug Screen. Data for the bub3 strain (AID 167)
# test_context: S. cerevisiae bub3 mutant strain, at 50.0 µM
The panel holds about 79,000 compounds, 15% with a hit somewhere; the sample as a whole holds those more often. Activity calls are given as the source filed them. Rule as the data show it: active = growth inhibition above about 70%; inactive = the rest. Where a SMILES comes first, the peptide text is derived from it. The star is where a group is joined. Trt = c1ccc(C(c2ccccc2)(c2ccccc2)*)cc1; OtBu = CC(C)(C)O*
The categories you may choose from are active, inactive

The following compounds have reported results that may help.
O=C(c1cccs1)N(C(=S)N1CCN(c2ccccn2)CC1)c1ccccc1 :: inactive
Cc1cc2c(c3c1C(=O)CC3)C(C)(C)CC2(C)C :: active
O=C(O)/C=C/c1c2ccccc2cc2ccccc12 :: active
O=C1OCCCN1/N=C/c1ccc([N+](=O)[O-])o1 :: inactive
COc1cccc2c1C(=O)c1c(O)c3c(c(O)c1C2=O)C[C@@](O)(/C(C)=N\NC=O)C[C@@H]3OC1CC(N)C(O)C(C)O1 (stereo partly drawn) :: active

So what was the verdict on O=C1CN(CCN2CCOCC2)CC(=O)N2CCCCN12 in this test?
inactive

What outcome does the record of this test show for CC(C)(C)OC(=O)CNC(=O)C(Cc1ccccc1)NC(=O)C(N)CSC(c1ccccc1)(c1ccccc1)c1ccccc1 (stereo not drawn) (H-Cys(Trt)-Phe-Gly-OtBu; configuration not given here) ?
inactive

So what was the verdict on CCCCCCCCCCCC(=O)N(CC)CC in this test?
active
